Cited source for all entries: patent US10266526B2

Measured On: SMYD3 (Homo sapiens (Human), UniProt Q9H7B4)
Sequence (Q9H7B4 whole entry): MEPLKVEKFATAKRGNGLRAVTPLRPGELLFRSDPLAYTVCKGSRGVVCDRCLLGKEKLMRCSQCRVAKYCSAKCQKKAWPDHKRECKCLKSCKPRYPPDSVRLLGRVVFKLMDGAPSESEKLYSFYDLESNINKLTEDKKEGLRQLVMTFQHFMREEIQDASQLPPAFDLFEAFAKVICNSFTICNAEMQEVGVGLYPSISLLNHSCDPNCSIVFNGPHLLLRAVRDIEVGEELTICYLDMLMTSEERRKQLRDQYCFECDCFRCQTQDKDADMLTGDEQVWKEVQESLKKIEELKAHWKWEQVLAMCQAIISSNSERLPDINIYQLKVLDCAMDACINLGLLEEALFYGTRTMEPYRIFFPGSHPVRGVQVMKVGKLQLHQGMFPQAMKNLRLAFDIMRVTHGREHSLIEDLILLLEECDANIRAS
Test Summary: SMYD3 biochemical assay (SMYD3 enzyme assay on MEKK2 protein substrate, 3H-SAM scintillation proximity assay)
Applied Conditions: read-out: SMYD3 Biochem IC50
Measured Metric: IC50

N[C@H]1CC[C@H](NC(=O)Cc2ccc3c(c2)CC(=O)N3)CC1 ... > 100 µM

Identify IC50 associated with the molecule `Cc1cnc(C(=O)N[C@H]2CC[C@H](N)CC2)s1`
> 100 µM

Look up IC50 of `NCCC(=O)N[C@H]1CC[C@H](NC(=O)c2ccc(Cl)cc2C(F)(F)F)CC1` and report it.
> 100 µM

Please look at this molecule and report its IC50: `Cc1ccc(C(=O)N[C@H]2CC[C@H](N)CC2)cn1`
> 100 µM

Specify reported IC50 for the molecule shown: CC(NC(=O)c1ccc(N)cn1)C1CCN(C(=O)[C@H](C)N)CC1 (stereo partly drawn)
> 100 µM

Supply recorded IC50 for `CC1=NN(c2ccc(C(=O)N[C@H]3CC[C@H](NC(=O)CCN)CC3)cc2)C(=O)C1` here.
37 µM

Please give the documented IC50 of NCCC(=O)N[C@H]1CC[C@H](NC(=O)C2C[C@@H]3C=C[C@H]2C3)CC1 (stereo partly drawn)
> 100 µM

Quick one: give measured IC50 for Cc1cncc(C(=O)NC(C)C2CCN(C(=O)[C@H](C)N)CC2)c1 (stereo partly drawn)
61.6 µM

Complete the entry with IC50 for CC(NC(=O)c1nc2ccccc2s1)C1CCN(C(=O)[C@H](C)N)CC1 (stereo partly drawn)
> 100 µM

Provide IC50 value for the following molecule: Cc1cccc2cc(C(=O)NC(C)C3CCN(C(=O)[C@H](C)N)CC3)[nH]c12 (stereo partly drawn)
> 100 µM

====

Recorded IC50 by entry
Measured On: SMYD3 (Homo sapiens (Human), UniProt Q9H7B4)
Test Summary: SMYD3 biochemical assay (SMYD3 enzyme assay on MEKK2 protein substrate, 3H-SAM scintillation proximity assay)
Applied Conditions: read-out: SMYD3 Biochem IC50

Before answering, review these 4 worked examples.
NCCC(=O)N[C@H]1CC[C@H](NC(=O)c2ccnc(O)c2)CC1 [compound 376] ... > 100 µM
N[C@H]1CC[C@H](NC(=O)c2cc3cn[nH]c3cn2)CC1 [compound 497] ... 35.7 µM
COc1cncc(C(=O)N[C@H]2CC[C@H](NC(=O)CCN)CC2)n1 [compound 355] ... > 100 µM
COc1ccc2cc(C(=O)N[C@H]3CC[C@H](N)CC3)ccc2c1 [compound 276] ... > 100 µM

State measured IC50 of the molecule Cn1ccc(C(=O)N[C@H]2CC[C@H](N)CC2)n1 [compound 350] with SMYD3 (Homo sapiens (Human), UniProt Q9H7B4).
> 100 µM

Retrieve IC50 on SMYD3 (Homo sapiens (Human), UniProt Q9H7B4); query NCCC(=O)N[C@H]1CC[C@H](NC(=O)c2cncnc2N)CC1 [compound 420]
> 100 µM

Report its IC50 with SMYD3 (Homo sapiens (Human), UniProt Q9H7B4) as the test system: CC1Oc2ccc(C(=O)N[C@H]3CC[C@H](N)CC3)cc2NC1=O (stereo partly drawn) [compound 452]
39.1 µM

Write IC50 of CC(NC(=O)c1cc2cc(Cl)ccc2[nH]1)C1CCN(C(=O)[C@H](C)N)CC1 (stereo partly drawn) [compound 229] ; system used: SMYD3 (Homo sapiens (Human), UniProt Q9H7B4)
77.9 µM

Write down the reported IC50 (system: SMYD3 (Homo sapiens (Human), UniProt Q9H7B4)) of NCCC(=O)N[C@H]1CC[C@H](NC(=O)c2cn(CC(N)=O)nn2)CC1 [compound 516]
> 50 µM
